- test details: In vitro toxicity on other mammalian cell types (FIG. 11)
- Format: cell-based
- condition info: pig (EAP) endothelial cells, read-out: concentration at which a toxic effect can possibly be observed
measured endpoint: MCC (µM)

1. Cc1nc2c(Cc3ccccc3)[nH]c(-c3ccc(O)cc3)cn-2c1=O [CLZN-9] :: 100

###

- test details: In vivo toxicity in mice
- condition info: mouse, in vivo, ip, 0.02 mg/kg
measured endpoint: survival (%)

1. Oc1ccc(Cc2nc3c(Cc4ccccc4)nc(-c4ccc(O)cc4)cn3c2O)cc1 :: 100
